target-or-test-system: T1, genetically modified and chemically inactivated C. difficile toxoid A (Clostridium difficile, UniProt P16154 2-2710)
T1 construct: also called TxdA; the toxoid
measurement-notes: ITC
pKd: −log10 of the molar value.
value-kind: pKd

| binder | result |
| --- | --- |
| hCDIFA-24 (antibody, V domains shown) VH: QVQLVQSGGGVVQPGRSLRLSCAASGFSFSTHGMHWVRQAPGKGLEWVAVISYDGSNKYYADSVKGRFTISRDNSKNTVYLQMNSLRAEDTAVFYCAKPRDNYYYYGMDVWGQGTTVTVSS VL: AIRMTQSPSSLSASTGNRVTITCRASQGISSYLAWYQQKPGKAPNLLIYAASTLQSGVPSRFTGSGSGTDFTLTISRLHSENFATYYCQQYFNYPRTFGQGTRLEIKR | 8.22 |
| hCDIFA-8 (antibody, V domains shown) VH: QVQLVESGGGLVKPGGSLRLSCAASGFTFSTSSMNWVRQAPGKGLEWVSSINTSGDYIYYTDSVKGRFTISRDNAKNSLYLQMNSLRAEDTAVYYCARDLGTWRDYWGQGTLVTVSS VL: QSVLTQPASVSGSPGQSITISCTGTSSDVGSYNLVSWYHQHPGKAPKLIIYEVSKRPSGVSNRFSGSKSGNTASLTISGLQAEDEADYYCYSYAGSSAFAWVFGTGTKLTVLG | 7.70 |
| hCDIFA-26 (antibody, V domains shown) VH: EVQLLESGAEVKKPGESLRISCNCSGYSFTSYWIGWVRQMPGEGLEWMGLIQPGGDSYPRYSPSFQGQVTISADKSISTAYLQWRSLKASDTAMYYCARRGFDHWGQGTLVTVSS VL: NFMLTQPPSASGAPGQRVTISCSGSSSNIGSNTVNWYQQLPGTAPKLLIYSNIQRPSGVPDRFSGSKSGTSASLAISGLQSDDEADYYCSAWDDSLNGYVFGTGTKVTVLG | 8.10 |

Values from patent US20230218735A1
